- Tested on: M. tuberculosis transformed with luxABCDE
- Assay details: microbe, parasite or virus in culture
- Type: cell-based, Mycobacterium tuberculosis
- Condition context: Mycobacterium tuberculosis, 168 h; […]; ≥99% reduction in luminescence; read-out: MBC99 Day 7 (Lux Assay) MBC
MBC by entry:
Return type: number; implicit unit µM.

[
  {
    "Compound": "CO[C@H]1/C=C/O[C@@]2(C)Oc3c(C)c(O)c4c(=O)c(c5oc6cc(N7CCN(CC(C)C)CC7)cc(OCc7cccc(CN8CCN(C(=O)Cn9ccnc9)CC8)c7)c6nc-5c4c3C2=O)NC(=O)/C(C)=C\\C=C\\[C@H](C)[C@H](O)[C@@H](C)[C@@H](O)[C@@H](C)[C@H](OC(C)=O)[C@@H]1C [Compound 12c]",
    "MBC (µM)": 0.037
  }
]

Lookup: Supply measured MBC of CO[C@H]1/C=C/O[C@@]2(C)Oc3c(C)c(O)c4c(=O)c(c5oc6cc(N7CCCC(C(=O)Nc8ccc(Cl)cc8)C7)cc(C)c6nc-5c4c3C2=O)NC(=O)/C(C)=C\C=C\[C@H](C)[C@H](O)[C@@H](C)[C@@H](O)[C@@H](C)[C@H](OC(C)=O)[C@@H]1C (stereo partly shown) in your reply.
Found: 0.025

====

- System: M. tuberculosis transformed with luxABCDE
- Assay details: microbe, parasite or virus in culture
- Format: cell-based, Mycobacterium tuberculosis
- Condition context: Mycobacterium tuberculosis, 168 h; […]; ≥99% reduction in luminescence; read-out: MBC99 Day 7 (Lux Assay) MBC
MBC values, listed per item
Report field: quantity (unit follows the number).

Lookup: Report MBC for CCOC(=O)N1CCN(c2cc(C)c3nc4c5c6c7c(C)c(O)c5c(=O)c(c-4oc3c2)NC(=O)/C(C)=C\C=C\[C@H](C)[C@H](O)[C@@H](C)[C@@H](O)[C@@H](C)[C@H](OC(C)=O)[C@H](C)[C@@H](OC)/C=C/O[C@@](C)(O7)C6=O)CC1 [Compound 26h]
Found: 0.028 µM

Lookup: Given CO[C@H]1/C=C/O[C@@]2(C)Oc3c(C)c(O)c4c(=O)c(c5oc6cc(N7CCN(CC(C)C)CC7)cc(O)c6nc-5c4c3C2=O)NC(=O)/C(C)=C\C=C\[C@H](C)[C@H](O)[C@@H](C)[C@@H](O)[C@@H](C)[C@H](OC(C)=O)[C@@H]1C [RLZ, rifalazil, reference compound] , respond with its MBC.
Found: 0.03 µM

Lookup: Read off the recorded MBC for CO[C@H]1/C=C/O[C@@]2(C)Oc3c(C)c(O)c4c(=O)c(c5oc6cc(C)cc(N7CCN(C(=O)c8cccc(-n9ccnc9)c8)CC7)c6nc-5c4c3C2=O)NC(=O)/C(C)=C\C=C\[C@H](C)[C@H](O)[C@@H](C)[C@@H](O)[C@@H](C)[C@H](OC(C)=O)[C@@H]1C [Compound 30f]
Found: 0.11 µM

Lookup: Please report the measured MBC for CO[C@H]1/C=C/O[C@@]2(C)Oc3c(C)c(O)c4c(=O)c(c5oc6cc(N7CCN(C(=O)c8ccc9occc9c8)CC7)cc(OCc7ccc(CN8CCOCC8)cc7)c6nc-5c4c3C2=O)NC(=O)/C(C)=C\C=C\[C@H](C)[C@H](O)[C@@H](C)[C@@H](O)[C@@H](C)[C@H](OC(C)=O)[C@@H]1C [Compound 17s]
Found: 0.084 µM

====

- System: M. tuberculosis transformed with luxABCDE
- Assay details: microbe, parasite or virus in culture
- Type: cell-based, Mycobacterium tuberculosis
- Condition context: Mycobacterium tuberculosis, 168 h; […]; ≥99% reduction in luminescence; read-out: MBC99 Day 7 (Lux Assay) MBC
Listing of recorded MBC by entry.
Kindly answer with a numeric value in µM, unit omitted.

Lookup: Item CO[C@H]1/C=C/O[C@@]2(C)Oc3c(C)c(O)c4c(=O)c(c5oc6cc(N7CCN(CC(C)C)CC7)cc(N7CCN(CC(C)C)CC7)c6nc-5c4c3C2=O)NC(=O)/C(C)=C\C=C\[C@H](C)[C@H](O)[C@@H](C)[C@@H](O)[C@@H](C)[C@H](OC(C)=O)[C@@H]1C [Compound 17u] : provide MBC
Found: 0.025

Lookup: Quote MBC reported for CCC(=O)N1CCN(Cc2cccc(COc3cccc4oc5c6c(=O)c7c(O)c(C)c8c(c7c-5nc34)C(=O)[C@@](C)(O/C=C/[C@H](OC)[C@@H](C)[C@@H](OC(C)=O)[C@H](C)[C@H](O)[C@H](C)[C@@H](O)[C@@H](C)/C=C/C=C(/C)C(=O)N6)O8)c2)CC1 [Compound 11d] please.
Found: 0.058

====

- Tested on: non-replicating cultures of M. tuberculosis H37Rv transformed with lux ABCDE
- Assay details: microbe, parasite or virus in culture
- Format: cell-based, Mycobacterium tuberculosis
- Condition context: ratio of LORA MIC90 to MABA MIC90
Readout: MIC90 LORA/MABA

Before answering, review these 3 worked examples.
[
  {
    "Compound": "CO[C@H]1/C=C/O[C@@]2(C)Oc3c(C)c(O)c4c(=O)c(c5oc6cccc(OCc7cccc(CN8CCN(C(=O)Cn9ccnc9)CC8)c7)c6nc-5c4c3C2=O)NC(=O)/C(C)=C\\C=C\\[C@H](C)[C@H](O)[C@@H](C)[C@@H](O)[C@@H](C)[C@H](OC(C)=O)[C@@H]1C [Compound 11e]",
    "Experimental target": "non-replicating cultures of M. tuberculosis H37Rv transformed with lux ABCDE",
    "Result": 1.6
  },
  {
    "Compound": "CO[C@H]1/C=C/O[C@@]2(C)Oc3c(C)c(O)c4c(=O)c(c5oc6cc(N7CCN(C(=O)c8ccncc8)CC7)cc(OCc7ccc(CN8CCOCC8)cc7)c6nc-5c4c3C2=O)NC(=O)/C(C)=C\\C=C\\[C@H](C)[C@H](O)[C@@H](C)[C@@H](O)[C@@H](C)[C@H](OC(C)=O)[C@@H]1C [Compound 17n]",
    "Experimental target": "non-replicating cultures of M. tuberculosis H37Rv transformed with lux ABCDE",
    "Result": 3.2
  },
  {
    "Compound": "CO[C@H]1/C=C/O[C@@]2(C)Oc3c(C)c(O)c4c(=O)c(c5oc6cc(N7CCN(CCCCCCO[C@@H]8COc9nc([N+](=O)[O-])cn9C8)CC7)cc(C)c6nc-5c4c3C2=O)NC(=O)/C(C)=C\\C=C\\[C@H](C)[C@H](O)[C@@H](C)[C@@H](O)[C@@H](C)[C@H](OC(C)=O)[C@@H]1C [Compound 29e]",
    "Experimental target": "non-replicating cultures of M. tuberculosis H37Rv transformed with lux ABCDE",
    "Result": 4.0
  }
]

Next:
Lookup: Return reported MIC90 LORA/MABA. Input compound: CO[C@H]1/C=C/O[C@@]2(C)Oc3c(C)c(O)c4c(=O)c(c5oc6cc(N7CCN(C(=O)c8ccc9occc9c8)CC7)cc(C)c6nc-5c4c3C2=O)NC(=O)/C(C)=C\C=C\[C@H](C)[C@H](O)[C@@H](C)[C@@H](O)[C@@H](C)[C@H](OC(C)=O)[C@@H]1C [Compound 29c]
Found: 2.0

====

- System: non-replicating cultures of M. tuberculosis H37Rv transformed with lux ABCDE
- Assay details: microbe, parasite or virus in culture
- Type: cell-based, Mycobacterium tuberculosis
- Condition context: ratio of LORA MIC90 to MABA MIC90
Quick reference: MIC90 LORA/MABA of the listed items.
Output: the number by itself.

[
  {
    "Compound": "CO[C@H]1/C=C/O[C@@]2(C)Oc3c(C)c(O)c4c(=O)c(c5oc6cc(N7CCN(CC(=O)O)CC7)cc(OCc7ccc(CN8CCOCC8)cc7)c6nc-5c4c3C2=O)NC(=O)/C(C)=C\\C=C\\[C@H](C)[C@H](O)[C@@H](C)[C@@H](O)[C@@H](C)[C@H](OC(C)=O)[C@@H]1C [Compound 17i]",
    "Readout": "MIC90 LORA/MABA",
    "Measured number": 9.5
  }
]

Lookup: # return recorded MIC90 LORA/MABA for input CO[C@H]1/C=C/O[C@@]2(C)Oc3c(C)c(O)c4c(=O)c(c5oc6cccc(OCCCCN7CCOCC7)c6nc-5c4c3C2=O)NC(=O)/C(C)=C\C=C\[C@H](C)[C@H](O)[C@@H](C)[C@@H](O)[C@@H](C)[C@H](OC(C)=O)[C@@H]1C
Found: 2.4

====

- Test system: M. tuberculosis transformed with luxABCDE
- Assay details: microbe, parasite or virus in culture
- Type: cell-based, Mycobacterium tuberculosis
- Condition context: Mycobacterium tuberculosis, 168 h; […]; ≥99% reduction in luminescence; read-out: MBC99 Day 7 (Lux Assay) MBC
Readout: MBC

[
  {
    "Compound": "CO[C@H]1/C=C/O[C@@]2(C)Oc3c(C)c(O)c4c(=O)c(c5oc6cccc(OCc7ccc(CN8CCN(C)CC8)cc7)c6nc-5c4c3C2=O)NC(=O)/C(C)=C\\C=C\\[C@H](C)[C@H](O)[C@@H](C)[C@@H](O)[C@@H](C)[C@H](OC(C)=O)[C@@H]1C [Compound 16e]",
    "MBC": "0.06 µM"
  },
  {
    "Compound": "CO[C@H]1/C=C/O[C@@]2(C)Oc3c(C)c(O)c4c(=O)c(c5oc6cc(N7CCN(C(=O)c8ccccc8)CC7)cc(OCc7ccc(CN8CCOCC8)cc7)c6nc-5c4c3C2=O)NC(=O)/C(C)=C\\C=C\\[C@H](C)[C@H](O)[C@@H](C)[C@@H](O)[C@@H](C)[C@H](OC(C)=O)[C@@H]1C [Compound 17m]",
    "MBC": "0.217 µM"
  },
  {
    "Compound": "CO[C@H]1/C=C/O[C@@]2(C)Oc3c(C)c(O)c4c(=O)c(c5oc6cc(N7CCS(=O)(=O)CC7)cc(OCc7ccc(CN8CCOCC8)cc7)c6nc-5c4c3C2=O)NC(=O)/C(C)=C\\C=C\\[C@H](C)[C@H](O)[C@@H](C)[C@@H](O)[C@@H](C)[C@H](OC(C)=O)[C@@H]1C [Compound 17j]",
    "MBC": "> 0.1 µM"
  },
  {
    "Compound": "CO[C@H]1/C=C/O[C@@]2(C)Oc3c(C)c(O)c4c(=O)c(c5oc6cc(N7CCC(C(=O)O)CC7)cc(OCc7ccc(CN8CCOCC8)cc7)c6nc-5c4c3C2=O)NC(=O)/C(C)=C\\C=C\\[C@H](C)[C@H](O)[C@@H](C)[C@@H](O)[C@@H](C)[C@H](OC(C)=O)[C@@H]1C [Compound 17k]",
    "MBC": "> 0.1 µM"
  },
  {
    "Compound": "CO[C@H]1/C=C/O[C@@]2(C)Oc3c(C)c(O)c4c(=O)c(c5oc6cc(N7CCN(CC(C)C)CC7)cc(OCc7ccc(CN8CCOCC8)cc7)c6nc-5c4c3C2=O)NC(=O)/C(C)=C\\C=C\\[C@H](C)[C@H](O)[C@@H](C)[C@@H](O)[C@@H](C)[C@H](OC(C)=O)[C@@H]1C [Compound 17e]",
    "MBC": "0.093 µM"
  }
]

Lookup: Determine its reported MBC: CO[C@H]1/C=C/O[C@@]2(C)Oc3c(C)c(O)c4c(=O)c(c5oc6cccc(OCc7cccc(CN8CCN(C(=O)Cc9ccccc9)CC8)c7)c6nc-5c4c3C2=O)NC(=O)/C(C)=C\C=C\[C@H](C)[C@H](O)[C@@H](C)[C@@H](O)[C@@H](C)[C@H](OC(C)=O)[C@@H]1C [Compound 11g]
Found: 0.044 µM

Lookup: Answer with reported MBC of CCC(=O)N1CCN(c2cc(C)c3nc4c5c6c7c(C)c(O)c5c(=O)c(c-4oc3c2)NC(=O)/C(C)=C\C=C\[C@H](C)[C@H](O)[C@@H](C)[C@@H](O)[C@@H](C)[C@H](OC(C)=O)[C@H](C)[C@@H](OC)/C=C/O[C@@](C)(O7)C6=O)CC1 [Compound 26e]
Found: 0.087 µM

Lookup: Name the recorded MBC of the item CO[C@H]1/C=C/O[C@@]2(C)Oc3c(C)c(O)c4c(=O)c(c5oc6cc(N7CCN(C(=O)OC(C)(C)C)CC7)cc(C)c6nc-5c4c3C2=O)NC(=O)/C(C)=C\C=C\[C@H](C)[C@H](O)[C@@H](C)[C@@H](O)[C@@H](C)[C@H](OC(C)=O)[C@@H]1C [Compound 26i] in your answer.
Found: 0.047 µM

Lookup: // Input: CO[C@H]1/C=C/O[C@@]2(C)Oc3c(C)c(O)c4c(=O)c(c5oc6cc(C)cc(N7CCN(CCn8ccnc8)CC7)c6nc-5c4c3C2=O)NC(=O)/C(C)=C\C=C\[C@H](C)[C@H](O)[C@@H](C)[C@@H](O)[C@@H](C)[C@H](OC(C)=O)[C@@H]1C [Compound 30e] . Output its MBC only.
Found: 0.49 µM

Lookup: Answer with the recorded MBC of CO[C@H]1/C=C/O[C@@]2(C)Oc3c(C)c(O)c4c(=O)c(c5oc6cc(N7CCN(C(=O)c8ccncc8)CC7)cc(OCc7ccc(CN8CCOCC8)cc7)c6nc-5c4c3C2=O)NC(=O)/C(C)=C\C=C\[C@H](C)[C@H](O)[C@@H](C)[C@@H](O)[C@@H](C)[C@H](OC(C)=O)[C@@H]1C [Compound 17n] only.
Found: 0.315 µM
